Ref: the RNAGym collection of RNA variant scans (doi:10.7554/elife.80360)

B1: Twister Ribozyme (parent)
chain: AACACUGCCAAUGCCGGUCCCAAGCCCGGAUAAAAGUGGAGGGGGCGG

# Variants of: B1
# Assay notes: self-cleavage, relative activity (ratio to wild type); higher = more cleavage; co-transcriptional

Mutation	self-cleavage
G29C G44A	0.791
A11G C25U	0.737
G16C G17U	0.174
C8U G41C	0.0951
A2C G17C	0.0357
C3U A22C	0.549
A34G G42A	0.133
A11U U18A	1
G7A C21A	0.059
C5G C21G	0.155
C5U G42C	0.287
A35U G47A	0.899
A10C G42C	0.345
A2C C19U	0.0609
A4U A40G	0.0581
A32U G43A	0.239
G17C C26U	0.17
A34C A40G	0.145
A2C G38C	0.0461
C14A A23U	0.508
C3G G47A	0.275
A4U G43A	0.0748
A10U G29U	0.939
G13A C46G	0.848
C27G G48C	0.147
A4G G45U	0.741
C8U C26G	0.0721
C8G C26A	0.0716
C5U C8A	0.193
A10C G24C	0.0859
A22C A33C	0.955
G7U C8G	0.114
U18C	0.664
A34U G41C	0.176
A34U G44A	0.893
C15A A35G	0.285
A2C G48U	0.0976
U12C G38C	0.951
A2G C46U	0.416
C15G U31C	0.108
A4G C21U	0.118
C26U G47U	0.15
A22G G48A	0.246
G24U U37C	0.0947
G17A U31A	0.715
U12C C26U	0.333
